Assay method text: soluble fraction after stress (log2 fold change); higher = more stays soluble; pooled small domains, quantitative proteomics;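 note: 20 min heating vs room temperature control held 20 min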
Particulars: stress: 75 degC
Property measured: soluble fraction (log2)

{"columns": ["Biosequence", "Property measured", "Reported value"],
 "data": [
  ["HMKEQYDLNDREQQFISLVANGLNNKEIAETLFLSEGTVRNYLSNLLDKLGLRDRTQLAIFFYQHL", "soluble fraction (log2)", -2.01],
  ["HMTGKVKWYDADKGFGFVTEDGGRDVYVRKSALPQGVETLKAGQRLEFGIAEGRRGPQALSVR", "soluble fraction (log2)", -0.0771],
  ["HMKQVEVESVIGKSEEAANSILTKAGLKVNIGYKEDSSKPTDTVLSQDPAPGEKVDEGTTVTIVVNNYKKP", "soluble fraction (log2)", 0.139],
  ["HMQISDESSIAKIADEVISEFPSQVSEFRSGKEKVLQFLIGQVMKKTKGKANPQITAKILREKLS", "soluble fraction (log2)", 0.00566],
  ["HMNGVPDMSPVPEGARNSTLHAWAFGRLKNHPDNETGIREDLFRRGHASGLQDAELDQIWKSIKRTL", "soluble fraction (log2)", 0.00545],
  ["HMSTEPLALVGKTGIAATVLRPSGRIEVDDKYYDAVSLGAFIEKGEMVNIVKYENLQLYVAKL", "soluble fraction (log2)", -2.18],
  ["HMIMNLNVLANNVRRLRTAQRLSQSALASKAGLSVPAIKNLENARNEPRVNTVQVIAHALEVRLQDLFAPT", "soluble fraction (log2)", -1.81],
  ["HMDEILHHPSYRAIYEYMLDHKHVKTKDIAALLNVKEPRARQLLKEMIDKHFIIALGSNRNREYELL", "soluble fraction (log2)", -0.94],
  ["HMSTEAVVMSSSVSVKSSPDKASTDLFVLHEGTKVRTVSELGDWREIVIADGKKGWVEARTIET", "soluble fraction (log2)", 0.756],
  ["HMNATPDMERYWASSAAEGRALEPLYAVSRGDGGEPLWWSPSRAQAERMAREEGGPLTVDRIDPP", "soluble fraction (log2)", 0.113],
  ["HMRTSPGADYEKTYYTIQSGDNLGAIAEKMGVSVADLKDWNDISGTKIYAGKKLVIYVKKGST", "soluble fraction (log2)", -0.351],
  ["HMSDSAFAEMRRELEALRNSNAEYERALSNFFPEAEDKALAAEAFYQNREYDELVAEREEANVIDGLKR", "soluble fraction (log2)", -0.198],
  ["HMQPTVEGLMKALETMTFNERTALALHYGLTGRQPMTFMAIGRYLGISDGRAEALVNSAIRKLR", "soluble fraction (log2)", -1.8],
  ["HMQKLLGPFEDFVKIKLDKYPDTKAAQMHDWLKEHYPDFPEVTPKTVYNFVMYVRQRHNIPIPD", "soluble fraction (log2)", -0.359],
  ["HMALKPKITIEELIRILNESKDLSDSETAKILNKDYTTAKYGKEFTSINVQGARYALDIATNTS", "soluble fraction (log2)", -0.145],
  ["HMIHDSAESVVFPFGKYKGYTLAHVIREHPHYTYWIRDNADFSPLWREAVSLALQNRDIGHLNLPHVK", "soluble fraction (log2)", -0.222],
  ["HMQSHGSRIWTDITGNFTREASFIELAEGKVTLQLTDGRRTIISFEILSKKDQEYVLDIGDS", "soluble fraction (log2)", -2.77]
]}
